System: Pancreatin
method_summary: Protease stability in simulated intestinal fluid (Pancreatin-SIF, FaSSIF)
Format: in vitro ADME
experimental_parameters: 240 min, 1 μM peptide, 37° C., read-out: FaSSIF 240 (min), remaining percent of peptide
Positions of bridges follow the written chain, without caps; N, C: chain ends. Non-standard residues stand in square brackets, D forms with d. Residues, ends and D or L forms follow the SMILES beside them. *: point of attachment. Trp(7-Me) = Cc1cccc2c(C[C@H](N)C(=O)O)c[nH]c12; 2Nal = N[C@@H](Cc1ccc2ccccc2c1)C(=O)O; 3Pal = N[C@@H](Cc1cccnc1)C(=O)O; Thp = NC1(C(=O)O)CCOCC1; Me2NCH2CH2 = CN(C)CC*; Aib = CC(C)(N)C(=O)O; Ava = NCCCCC(=O)O; Sar = CNCC(=O)O
parameter_measured: remaining at 4 h, 1 µM (%)
Report as a plain number; the unit % is understood.

{"columns": ["compound", "unit_descriptor", "remaining at 4 h, 1 µM"],
 "data": [
  ["CC(=O)NCCCC[C@@H]1NC(=O)[C@H](Cc2c[nH]c3c(C)cccc23)NC(=O)[C@H]([C@@H](C)O)NC(=O)[C@H](CC(N)=O)NC(=O)[C@@H]2CSSC[C@H](NC1=O)C(=O)N[C@@H](Cc1ccc(OCCN(C)C)cc1)C(=O)N[C@@H](Cc1ccc3ccccc3c1)C(=O)NC(C)(C)C(=O)N[C@H](C(=O)N[C@@H](CC(N)=O)C(=O)N[C@@H](Cc1c[nH]cn1)C(=O)N(C)CC(N)=O)CCC(=O)NCCCCC(=O)N2 [compound 45] ([Ava]CNT[Trp(7-Me)]K(Ac)CY(Me2NCH2CH2)[2Nal][Aib]ENH[Sar]-NH2; disulfide 2-7; lactam N-11)", "%", 74]
]}

Now, please, on to the next compound.
## Task I am curious: what remaining at 4 h, 1 µM value has been reported for CC(=O)NCCCC[C@@H]1NC(=O)[C@H](Cc2c[nH]c3c(C)cccc23)NC(=O)[C@H]([C@@H](C)O)NC(=O)[C@H](CC(N)=O)NC(=O)[C@@H]2CSSC[C@H](NC1=O)C(=O)N[C@@H](Cc1ccc(OCCN(C)C)cc1)C(=O)N[C@@H](Cc1ccc3ccccc3c1)C(=O)NC1(CCOCC1)C(=O)N[C@H](C(=O)N[C@@H](CO)C(=O)N[C@@H](Cc1cccnc1)C(=O)N(C)CC(N)=O)CCC(=O)NCCCCC(=O)N2 [compound 56] ([Ava]CNT[Trp(7-Me)]K(Ac)CY(Me2NCH2CH2)[2Nal][Thp]ES[3Pal][Sar]-NH2; disulfide 2-7; lactam N-11) ?
## Result 77

* * *

Test system: Pancreatin
method_summary: Protease stability in simulated intestinal fluid (Pancreatin-SIF, FaSSIF)
Assay type: in vitro ADME
experimental_parameters: 240 min, 1 μM peptide, 37° C., read-out: FaSSIF 240 (min), remaining percent of peptide
Starred links: 1 amine or outer side, 2 acyl side, 3 side chain; linkers in the order of their positions; H or OH if unused. Positions of bridges follow the written chain, without caps; N, C: chain ends. Non-standard residues stand in square brackets, D forms with d. Residues, ends and D or L forms follow the SMILES beside them. X3 = CN(CCCCC(=O)N[C@@H](CS[*:2])C(=O)[*:1])[*:3]; 2Nal = N[C@@H](Cc1ccc2ccccc2c1)C(=O)O; AEF = NCCOc1ccc(C[C@H](N)C(=O)O)cc1; Thp = NC1(C(=O)O)CCOCC1
// returns not satisfied unless remaining at 4 h, 1 µM is strictly below 80%, in which case satisfied

## Task Threshold test, remaining at 4 h, 1 µM < 80%: CC(=O)N[C@H]1CCCCNC(=O)[C@@H]2CSSC[C@H](NC(=O)[C@H](CCC(N)=O)NC(=O)[C@H](Cc3c[nH]c4ccccc34)NC1=O)C(=O)N[C@@H](Cc1ccc(OCCN)cc1)C(=O)N[C@@H](Cc1ccc3ccccc3c1)C(=O)NC1(CCOCC1)C(=O)N[C@H](C(=O)N[C@@H](C)C(=O)NCC(N)=O)CCC(=O)N(C)CCCCC(=O)N2 [compound 17] (Ac-KWQC[AEF][2Nal][Thp]EAG-NH2; linker 1-4-8 via X3)
## Result satisfied
